Consider the following molecules; for each one, report its IC50.
System: SW480 (G12V) cells
Assay: Cell viability assay (CELLTITER-GLO), SW480 cells
Type: cell-based
Conditions: Homo sapiens, 72 h, Inhibition of cancerous cells, 3 days incubation, luminescence
Numbers only here, please. The scale is µM.

Query string: Param item = COc1cc2c(N[C@H](C)c3cccc(Br)c3)nc(C)nc2cc1OCCCCCCCN1C(C)(C)CCCC1(C)C [Compound A74] ; retrieve measured IC50.
Result string: 0.42

Query string: Here is the next molecule: COc1cc2c(N[C@H](C)c3cccc(Br)c3)nc(C)nc2cc1OCCCCCCCN1CCCCC1 [Compound A1]
Result string: 0.52

Query string: Here is the next molecule: CNCc1ccccc1-c1csc([C@@H](C)Nc2nc(C)nc3cc(OCCOCCNC(=O)CC45CC6CC(CC(C6)C4)C5)c(OC)cc23)c1 [Compound A5]
Result string: 0.55

Query string: Here is the next molecule: CNCc1ccccc1-c1csc([C@@H](C)Nc2nc(C)nc3cc(OCCOCCOC(=O)CC45CC6CC(CC(C6)C4)C5)c(OC)cc23)c1 [Compound A47]
Result string: 0.58

Query string: Here is the next molecule: COc1cc2c(N[C@H](C)c3cccc(Br)c3)nc(C)nc2cc1OCCCCCCCN1CCC2(CC1)CCN(C(=O)OC(C)(C)C)CC2 [Compound A72]
Result string: 0.48

Query string: Here is the next molecule: CNCc1ccccc1-c1csc([C@H](C)Nc2nc(C)nc3cc(OCCCCCOC(=O)CC45CC6CC(CC(C6)C4)C5)c(OC)cc23)c1 [Compound A46]
Result string: 1.2

Query string: Here is the next molecule: COc1cc2nc(C)nc(N[C@H](C)c3cccc(Br)c3)c2cc1OC [reference compound]
Result string: 3.4

Query string: Here is the next molecule: COc1cc2c(N[C@H](C)c3cccc(Br)c3)nc(C)nc2cc1OCCCCCCCc1ccncc1 [Compound A43]
Result string: 1.9

Query string: Here is the next molecule: CNCc1ccccc1-c1csc([C@H](C)Nc2nc(C)nc3cc(OCCOCCNC(=O)CC45CC6CC(CC(C6)C4)C5)c(OC)cc23)c1 [Compound A6]
Result string: 0.76

Query string: Here is the next molecule: COc1cc2c(N[C@H](C)c3cccc(Br)c3)nc(C)nc2cc1OCCCCCCCN1CCOCC1 [Compound A75]
Result string: 0.59

Query string: Here is the next molecule: COc1cc2c(N[C@H](C)c3cccc(Br)c3)nc(C)nc2cc1OCCCCCCCNCCC(F)(F)F [Compound A70]
Result string: 0.93

Query string: Here is the next molecule: CNCc1ccccc1-c1csc([C@H](C)Nc2nc(C)nc3cc(OCCCCCCCN4CCCCC4)c(OC)cc23)c1 [Compound A3]
Result string: 0.61

Query string: Here is the next molecule: CNCc1ccccc1-c1csc([C@@H](C)Nc2nc(C)nc3cc(OCCCCCCCN4CCN(C(C)=O)CC4)c(OC)cc23)c1 [Compound A64]
Result string: 0.46

Query string: Here is the next molecule: CNCc1ccccc1-c1csc([C@@H](C)Nc2nc(C)nc3cc(OCCCCCCCN4CCCCC4)c(OC)cc23)c1 [Compound A2]
Result string: 0.51

Query string: Here is the next molecule: COc1cc2c(N[C@H](C)c3cccc(Br)c3)nc(C)nc2cc1OCCCCCCCN1CCC(C(F)(F)F)CC1 [Compound A24]
Result string: 0.71

Query string: Here is the next molecule: CNCc1ccccc1-c1csc([C@H](C)Nc2nc(C)nc3cc(OCCOCCOC(=O)CC45CC6CC(CC(C6)C4)C5)c(OC)cc23)c1 [Compound A48]
Result string: 0.57

Query string: Here is the next molecule: CNCc1ccccc1-c1csc([C@@H](C)Nc2nc(C)nc3cc(OCCCCCCCN4CCC(C(F)(F)F)CC4)c(OC)cc23)c1 [Compound A67]
Result string: 0.44

Query string: Here is the next molecule: COc1cc2c(N[C@H](C)c3cccc(Br)c3)nc(C)nc2cc1OCCCCCCCN1CCN(C(C)=O)CC1 [Compound A26]
Result string: 0.58

Query string: Here is the next molecule: CNCc1ccccc1-c1csc(C(C)Nc2nc(C)nc3cc(OCCCCCCCN4CCC(C(F)(F)F)CC4)c(OC)cc23)c1 (stereo in doubt) [Compound A66]
Result string: 0.55
